- Tested on: HEK293T cells carrying the ATF4 luciferase reporter
- assayComment: ATF4-Luc assay (in vitro model of VWMD)
- Type: cell-based
- measurementSetup: Homo sapiens, HEK-293T; HEK293T cells with ATF4 5'-UTR firefly luciferase reporter; 1 μg/mL tunicamycin; 7 hours; One Glo luminescence
pEC50: −log10 of the molar value.
measurementKind: pEC50

| molecule | testedOn | measurementKind | observedMeasurement |
| --- | --- | --- | --- |
| O=C(COc1ccc(Cl)c(F)c1)N[C@H]1CC[C@H](C(=O)NCc2ccc(OC(F)F)cn2)CC1 [Compound 107] | HEK293T cells carrying the ATF4 luciferase reporter | pEC50 | 7.30 to 8.00 |
| O=C(COc1ccc(F)c(F)c1)N[C@H]1CC[C@H](C(=O)NCc2nc3cc(Cl)ccc3[nH]2)CC1 [Compound 149] | HEK293T cells carrying the ATF4 luciferase reporter | pEC50 | 6.60 to 7.30 |
| O=C(COc1ccc(Cl)c(F)c1)N[C@H]1CC[C@H](C(=O)N2CCN(c3cccc(Cl)c3)C(=O)C2)CC1 [Compound 126] | HEK293T cells carrying the ATF4 luciferase reporter | pEC50 | 5.70 to 6.30 |
| O=C(COc1ccc(Cl)c(Cl)c1)N[C@H]1CC[C@H](C(=O)NCc2ccc(C(F)(F)F)nc2)CC1 [Compound 100] | HEK293T cells carrying the ATF4 luciferase reporter | pEC50 | 7.30 to 8.00 |
| O=C(COc1ccc(Cl)c(F)c1)N[C@H]1CC[C@H](C(=O)Nc2ccc(Cl)c(F)c2)CC1 [Compound 111] | HEK293T cells carrying the ATF4 luciferase reporter | pEC50 | 7.30 to 8.00 |
| O=C(COc1ccc(Cl)c(F)c1)N[C@@H]1CC[C@@H](C(=O)NCc2ccc(OC(F)(F)F)cc2)OC1 [Compound 157] | HEK293T cells carrying the ATF4 luciferase reporter | pEC50 | 6.60 to 7.30 |
| O=C(COc1ccc2c(c1)OC(F)(F)O2)N[C@H]1CC[C@H](C(=O)NCc2nc3cc(Cl)ccc3[nH]2)CC1 [Compound 148] | HEK293T cells carrying the ATF4 luciferase reporter | pEC50 | 6.60 to 7.30 |

These measurements were taken from patent US11939320B2.
